Where do these numbers come from? They come from patent US20170342144A1.

- test.target: T1, human TGFβ3 (human, UniProt P10600 301-412)
- T1 sequence: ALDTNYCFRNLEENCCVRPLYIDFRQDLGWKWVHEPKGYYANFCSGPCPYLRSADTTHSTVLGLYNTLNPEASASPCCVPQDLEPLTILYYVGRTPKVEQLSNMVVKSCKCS
- protocol.text: Biacore off-rate vs wt GC1008, 50 nM
- Description: Plasmids encoding either the GC1008 heavy chain or light chain were used as a template in PCR-based mutagenesis reactions. […] Purified variant antibody samples were analyzed in duplicate on a Biacore® 3000 (GE Healthcare) at 50 nM concentrations, using the 100 RU level TGFβ1, 2, and 3 immobilized surfaces. […]
measurement.name: kd var/kd wt
No unit in the answer, only the number.

I54T (antibody, V domains shown, GC1008 IgG4 variant) VH: QVQLVQSGAEVKKPGSSVKVSCKASGYTFSSNVISWVRQAPGQGLEWMGGVIPTVDIANYAQRFKGRVTITADESTSTTYMELSSLRSEDTAVYYCASTLGLVLDAMDYWGQGTLVTVSS VL: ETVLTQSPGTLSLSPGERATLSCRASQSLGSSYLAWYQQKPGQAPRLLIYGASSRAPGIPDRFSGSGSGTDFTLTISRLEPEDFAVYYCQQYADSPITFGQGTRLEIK; 1.7

// below: kd var/kd wt requested for another binder
Query string: Give the measured kd var/kd wt for Y27K (antibody, V domains shown, GC1008 IgG4 variant) VH: QVQLVQSGAEVKKPGSSVKVSCKASGKTFSSNVISWVRQAPGQGLEWMGGVIPIVDIANYAQRFKGRVTITADESTSTTYMELSSLRSEDTAVYYCASTLGLVLDAMDYWGQGTLVTVSS VL: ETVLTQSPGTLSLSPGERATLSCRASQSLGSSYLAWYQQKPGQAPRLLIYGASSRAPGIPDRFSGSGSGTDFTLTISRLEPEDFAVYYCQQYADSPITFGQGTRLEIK
Result string: 1.3
